# study-system: HEK293-EBNA cells transfected with pCEP4-hEP2 receptors (Homo sapiens)
# Construct: expressed in transfected cells; host or cells: HEK293-EBNA
# Sequence (P43116 whole entry): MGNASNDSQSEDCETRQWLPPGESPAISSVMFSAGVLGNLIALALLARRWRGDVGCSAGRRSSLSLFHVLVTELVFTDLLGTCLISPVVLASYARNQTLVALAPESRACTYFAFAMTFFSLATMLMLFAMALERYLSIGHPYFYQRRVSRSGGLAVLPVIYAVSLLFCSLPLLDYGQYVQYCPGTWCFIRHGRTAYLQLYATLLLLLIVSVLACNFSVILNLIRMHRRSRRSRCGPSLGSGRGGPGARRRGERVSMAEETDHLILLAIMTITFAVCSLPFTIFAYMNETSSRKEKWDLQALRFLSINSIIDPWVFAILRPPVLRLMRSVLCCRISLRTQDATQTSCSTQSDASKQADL
# method-notes: EP2 cAMP assay
# Assay type: cell-based
# particulars: total cAMP, 1 hour 37° C.
measured-endpoint: EC50 (nM)

These solved cases illustrate the format of a correct answer.
compound	unit	EC50
CCCCC(O)(CC)CCCN1CCC(=O)N1CCc1ccc(C(=O)O)cc1 (centres unmarked) [Example 9]	nM	461
CCCCCC(O)CCN1CCC(=O)N1CCc1ccc(C(=O)O)cc1 (centres unmarked) [Example 1]	nM	595

A = CCCC(C)C(O)CCN1CCC(=O)N1CCc1ccc(C(=O)O)cc1 (centres unmarked) [Example 13]
B = CCCCCC(O)/C=C\CN1CCC(=O)N1CCc1ccc(C(=O)O)cc1 (centres unmarked) [Example 4]
C = CCCCCC(O)CCCN1CCC(=O)N1CCc1ccc(C(=O)O)cc1 (stereo in doubt) [Example 15]
D = CCC1(C(O)CCCN2CCC(=O)N2CCc2ccc(C(=O)O)cc2)CCC1 (centres unmarked) [Example 19]
Rank ascending by EC50. Present the labels in the sequence the task asks for.
D, C, B, A
(D: 393 nM, C: 1500 nM, B: 2600 nM, A: 5000 nM)

1 = CCCC(C)C(O)CCCN1CCC(=O)N1CCc1ccc(C(=O)O)cc1 (centres unmarked) [Example 8]
2 = CCCCC(O)CCCN1CCC(=O)N1CCc1ccc(C(=O)O)cc1 (centres unmarked) [Example 6]
Returns: the label, 1 or 2 , whose recorded EC50 is the lower number. Identify your selection by its label.
2
